Numbers sourced from BindingDB's records for doi:10.1021/jm001008m.

Molecular target: Steroid 17-alpha-hydroxylase/17,20 lyase (Rattus norvegicus)
Sequence (P11715 whole entry): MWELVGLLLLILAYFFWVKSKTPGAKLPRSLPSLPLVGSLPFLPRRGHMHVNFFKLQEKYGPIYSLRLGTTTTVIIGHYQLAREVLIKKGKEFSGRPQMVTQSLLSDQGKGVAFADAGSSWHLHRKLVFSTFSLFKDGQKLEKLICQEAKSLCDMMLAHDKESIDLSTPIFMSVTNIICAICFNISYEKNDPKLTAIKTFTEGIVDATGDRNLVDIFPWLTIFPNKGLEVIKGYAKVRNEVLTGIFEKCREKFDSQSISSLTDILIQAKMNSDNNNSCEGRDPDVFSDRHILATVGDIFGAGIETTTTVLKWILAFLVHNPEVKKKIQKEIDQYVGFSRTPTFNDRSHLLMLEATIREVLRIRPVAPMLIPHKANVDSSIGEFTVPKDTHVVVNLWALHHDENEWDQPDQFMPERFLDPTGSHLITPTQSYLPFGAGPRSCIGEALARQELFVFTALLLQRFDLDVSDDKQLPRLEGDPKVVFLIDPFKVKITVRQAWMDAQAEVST
reported property: IC50

Entry CC(N=O)[C@H]1CCC2C3CCC4=CC(=O)CCC4(C)C3CCC21C (stereo partly specified) — recorded IC50 = > 125 µM
